Origin of measurements: ChEMBL document CHEMBL3853334

- procedure-summary: Drug uptake in wild type C57BL mouse brain at 3 mg/kg, po measured after 4 hrs
- Type: ADME, organism-based
- condition-description: read-out: Drug uptake
Consider the following molecules; for each one, report its concentration at 4 h.
Number first, unit second.

1) COc1cc(N2Cc3cn(-c4cccc(S(C)(=O)=O)c4)nc3[C@H]2C(C)(C)C)ccn1 : 1020 nM

Identify the reported concentration at 4 h for the following entry. CC(C)[C@@H]1c2nn(-c3cccc(S(C)(=O)=O)c3)cc2CN1c1ccnc(C(F)(F)F)n1
3150 nM

* * *

Reported pIC50, Cytochrome P450 2C9 (Homo sapiens, UniProt P11712).
Answers are plain numbers, as −log10 of the molar value.

1) CC(C)[C@@H]1c2nn(-c3cccc(S(C)(=O)=O)c3)cc2CN1c1cc(C(F)(F)F)ncn1 : 5.28
2) CC(C)[C@@H]1c2nn(-c3ccc(CO)c(S(C)(=O)=O)c3)cc2CN1c1ncc(CO)c(C(F)(F)F)n1 : 6.31
3) COc1cc(N2Cc3cn(-c4cccc(S(C)(=O)=O)c4)nc3[C@H]2C(C)C)cc(C)n1 : 5.42
4) COc1ncnc(N2Cc3cn(-c4cccc(S(C)(=O)=O)c4)nc3[C@H]2C(C)C)c1F : 5.84

# batch: return pIC50 for each of the 2 compounds below
1. CC(C)[C@@H]1c2nn(-c3cccc(S(C)(=O)=O)c3)cc2CN1c1ncc(CO)c(C(F)(F)F)n1
2. COc1nc(C)cc(N2Cc3cn(-c4cccc(S(C)(=O)=O)c4)nc3[C@H]2C(C)C)n1

1: 6.43; 2: 5.24
